# Experimental system: ATP-binding cassette sub-family C member 2 (Rattus norvegicus, UniProt Q63120)
# Sequence (Q63120 whole entry): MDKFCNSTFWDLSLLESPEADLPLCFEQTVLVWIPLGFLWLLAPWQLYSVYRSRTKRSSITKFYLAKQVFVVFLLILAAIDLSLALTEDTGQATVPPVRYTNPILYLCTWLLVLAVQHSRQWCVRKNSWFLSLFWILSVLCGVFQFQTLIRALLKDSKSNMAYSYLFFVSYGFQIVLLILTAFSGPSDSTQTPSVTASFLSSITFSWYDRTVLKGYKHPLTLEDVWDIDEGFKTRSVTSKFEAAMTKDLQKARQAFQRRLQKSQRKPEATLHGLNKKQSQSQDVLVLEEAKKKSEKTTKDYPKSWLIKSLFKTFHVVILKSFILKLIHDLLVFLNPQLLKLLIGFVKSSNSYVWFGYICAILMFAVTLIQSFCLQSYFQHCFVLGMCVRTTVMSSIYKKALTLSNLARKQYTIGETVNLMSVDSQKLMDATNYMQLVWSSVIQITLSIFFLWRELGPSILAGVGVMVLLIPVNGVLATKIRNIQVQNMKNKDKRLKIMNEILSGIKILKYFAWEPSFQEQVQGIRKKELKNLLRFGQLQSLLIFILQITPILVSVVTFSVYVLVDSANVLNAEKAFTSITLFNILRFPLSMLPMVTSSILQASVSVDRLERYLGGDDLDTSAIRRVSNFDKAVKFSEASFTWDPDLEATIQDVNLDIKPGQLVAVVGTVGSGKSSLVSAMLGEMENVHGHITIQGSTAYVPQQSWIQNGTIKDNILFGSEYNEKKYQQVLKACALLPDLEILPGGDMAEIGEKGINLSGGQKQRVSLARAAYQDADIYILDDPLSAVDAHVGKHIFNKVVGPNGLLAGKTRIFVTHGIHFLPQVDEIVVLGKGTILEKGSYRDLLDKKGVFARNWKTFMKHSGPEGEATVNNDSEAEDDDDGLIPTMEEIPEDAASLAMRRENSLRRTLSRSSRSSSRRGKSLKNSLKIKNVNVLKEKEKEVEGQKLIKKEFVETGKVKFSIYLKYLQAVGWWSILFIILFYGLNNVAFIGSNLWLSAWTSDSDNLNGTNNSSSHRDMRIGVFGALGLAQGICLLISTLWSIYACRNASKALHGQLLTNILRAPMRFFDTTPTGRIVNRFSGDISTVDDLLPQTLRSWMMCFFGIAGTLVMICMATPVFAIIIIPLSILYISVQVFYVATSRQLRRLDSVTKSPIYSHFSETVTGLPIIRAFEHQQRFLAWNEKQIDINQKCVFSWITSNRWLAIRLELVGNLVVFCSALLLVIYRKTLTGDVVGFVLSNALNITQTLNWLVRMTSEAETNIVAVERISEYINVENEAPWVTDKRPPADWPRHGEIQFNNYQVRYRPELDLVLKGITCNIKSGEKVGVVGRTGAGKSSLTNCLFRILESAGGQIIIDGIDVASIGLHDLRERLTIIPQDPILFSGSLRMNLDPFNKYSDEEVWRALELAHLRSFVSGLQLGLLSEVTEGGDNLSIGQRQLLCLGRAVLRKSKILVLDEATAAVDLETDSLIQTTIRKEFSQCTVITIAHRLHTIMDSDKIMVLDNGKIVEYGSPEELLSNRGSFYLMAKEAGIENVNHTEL
# Run description: TP_TRANSPORTER: inhibition of DNP-SG uptake in bile canalicular membrane vesicles from SD rat
pKi: −log10 of the molar value.

Molecule	pKi
Nc1nc(N)c2nc(CN3CCSc4cc(C(=O)NC(CCCC(=O)O)C(=O)O)ccc43)cnc2n1 (stereo unspecified)	3.79
